Target: GST-SDE2-FLAG WT (human) (UniProt Q6IQ49)
Sequence: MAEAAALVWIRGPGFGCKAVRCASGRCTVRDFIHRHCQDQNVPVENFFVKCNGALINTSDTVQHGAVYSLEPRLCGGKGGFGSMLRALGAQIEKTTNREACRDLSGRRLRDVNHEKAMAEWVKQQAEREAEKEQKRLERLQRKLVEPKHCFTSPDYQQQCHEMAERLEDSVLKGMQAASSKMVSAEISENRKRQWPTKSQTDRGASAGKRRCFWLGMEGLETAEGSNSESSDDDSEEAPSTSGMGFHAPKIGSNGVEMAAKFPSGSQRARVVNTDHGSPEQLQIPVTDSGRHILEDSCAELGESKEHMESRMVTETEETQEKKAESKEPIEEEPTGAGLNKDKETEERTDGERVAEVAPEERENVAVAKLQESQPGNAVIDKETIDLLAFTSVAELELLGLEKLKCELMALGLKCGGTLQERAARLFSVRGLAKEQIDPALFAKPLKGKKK
Assay: fluorescence anisotropy
Settings: EMSA: 10 mM Tris-HCl pH 7.5, 50 mM NaCl, 0.5 mM DTT, 0.05 mM EDTA, 3% glycerol, 0.05 mg/ml BSA (or 50 mM Na/K PO4 pH 6.0, 50 mM NaCl, 5 mM DTT), on ice …
Measurement name: Kd

1) GACGCTGCCGAATTCTACCAGTGCCTTGCTAGGACATCTTTGCCCACCTGCAGGTTCACCC (double strand) [60-mer dsDNA (EMSA1/EMSA2)] :: 24.2 µM

Taken from paper PMC9399289.
